# Assay System: T1, mouse CLDN-5 protein (mouse, UniProt O54942 1-218)
# T1 construct: Expressed on cells by retrovirus; also called mCLDN-5; MDCKII/mCLDN-5
# T1 sequence: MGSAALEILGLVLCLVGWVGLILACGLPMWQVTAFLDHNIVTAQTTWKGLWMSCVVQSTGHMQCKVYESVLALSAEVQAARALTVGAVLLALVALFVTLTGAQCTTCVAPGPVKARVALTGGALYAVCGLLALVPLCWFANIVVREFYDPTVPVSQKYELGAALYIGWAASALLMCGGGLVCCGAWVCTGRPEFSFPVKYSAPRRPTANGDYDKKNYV
# Method: FACS, hybridoma supernatant on CLDN-expressing cells

{"columns": ["Binder", "binding result"],
 "data": [
  ["rat anti-CLDN-5 antibody R28 (antibody, rat IgG2a, V domains shown, Hybridoma monoclonal; also called antibody M) VH: EVQLVESGGGLVQPGRSLKLSCAASGFTFSDYFMAWVRQAPKKGLEWVASINYEGSRTYYGDSVKDRFTISRDNTKTTLYLQMTSLRSEDTATYYCARHPRRYFDFWGQGVMVTVSS VL: DIVMTQSPSSLAVSAGETVTINCKSSRSLFSSGYQENYLAWYQQKPGQSPKMLIYLASTRESGVPDRFIGSGSGTDFTLTINTLQAEDLAIYYCQQHYDIPYTFGAGTKLEL", "no binding"],
  ["mouse anti-CLDN-5 antibody M11 (antibody, mouse IgG2b, V domains shown, Hybridoma monoclonal; also called antibody B) VH: QVQLKQSGPGLVQPSQSLSITCTVSGFSLIRYGVHWVRQSPGKGLEWLGVKWSGGSTDYNGAFKSRLSISKDNSKSQVFFKMNSLQADDTAIYYCARGLDGYYVPDVWGTGTSVTVS VL: DIVMTQSHKFMSTSVGDRVSITCKASQDVSTNVAWYQQKPGQSPTLLIYWASTRHTGVPDRFTGSGSGTDYTLTISSVQAEDLALYYCQQHYSTPLTFGAGTKLELRR", "no binding"],
  ["rat anti-CLDN-5 antibody R3 (antibody, rat IgG2a, V domains shown, Hybridoma monoclonal; also called antibody G) VH: EVQLVESGGGLVQPGRSLKLSCAASGFTFSDYYMAWVRQAPKKGLEWVASISYEGRNTYYGDSVKGRFTISRDNAKSTLYLQMKSLRSEDTATYYCTRHPRRYFDYWGQGVMVTVSS VL: DIVMTQSPSSLAVSAGETVTMNCRSSQSLFSSGDQKKFLAWYQQKPGQSPKLLISLASTRESGVPDRFIGSGSGTDFTLTINNMQAEDLAIYYCQQHYDIPYTFGAGTKLEL", "no binding"]
]}
